# Tested on: C. albicans GC 3066
# TEST_DETAILS: In vitro MIC, broth dilution
# Assay type: cell-based
# TEST_CONTEXT: Candida albicans, GC3066
Each record here notes measured MIC.

| COMPOUND | TARGET_OR_TEST_SYSTEM | MIC |
| --- | --- | --- |
| COc1ccc(Cn2c(=O)ccn([C@@H]3OC([C@H](O)[C@H](NCCCNC(=O)[C@H](CC(C)C)NC(=O)[C@H](CCCNC(=N)N[N+](=O)O)NC(=O)N[C@H](C(=O)OCc4ccccc4)C(C)C)C(=O)OC(C)(C)C)[C@@H](O[Si](C)(C)C(C)(C)C)[C@H]3O[Si](C)(C)C(C)(C)C)c2=O)cc1 (some centres unmarked) | C. albicans GC 3066 | > 128 mg/L |
| COc1ccc(Cn2c(=O)ccn([C@@H]3OC([C@H](O)[C@H](NCCCNC(=O)[C@@H](NC(=O)[C@H](CCCNC(=N)N[N+](=O)O)NC(=O)N[C@H](C(=O)OCc4ccccc4)C(C)C)[C@@H](O)C(C)C)C(=O)OC(C)(C)C)[C@@H](O[Si](C)(C)C(C)(C)C)[C@H]3O[Si](C)(C)C(C)(C)C)c2=O)cc1 (some centres unmarked) | C. albicans GC 3066 | > 128 mg/L |
| COc1ccc(Cn2c(=O)ccn([C@@H]3OC([C@H](O)[C@H](NC(=O)CCCCCCCCCCNC(=O)OCC4c5ccccc5-c5ccccc54)C(=O)OC(C)(C)C)[C@@H](O[Si](C)(C)C(C)(C)C)[C@H]3O[Si](C)(C)C(C)(C)C)c2=O)cc1 (some centres unmarked) | C. albicans GC 3066 | > 128 mg/L |
| COc1ccc(Cn2c(=O)ccn([C@@H]3OC([C@H](O)[C@H](NCCCNC(=O)[C@H](CCC(=O)OC(C)(C)C)NC(=O)OCc4ccccc4)C(=O)OC(C)(C)C)[C@@H](O[Si](C)(C)C(C)(C)C)[C@H]3O[Si](C)(C)C(C)(C)C)c2=O)cc1 (some centres unmarked) | C. albicans GC 3066 | 128 mg/L |
| COc1ccc(Cn2c(=O)ccn([C@@H]3OC([C@H](O)[C@H](NCCCNC(=O)[C@H](CC(=O)OCc4ccccc4)NC(=O)OCc4ccccc4)C(=O)OC(C)(C)C)[C@@H](O[Si](C)(C)C(C)(C)C)[C@H]3O[Si](C)(C)C(C)(C)C)c2=O)cc1 (some centres unmarked) | C. albicans GC 3066 | 128 mg/L |
| COc1ccc(Cn2c(=O)ccn([C@@H]3OC([C@H](O)[C@H](NCCCNC(=O)[C@H](Cc4ccccc4)NC(=O)OCc4ccccc4)C(=O)OC(C)(C)C)[C@@H](O[Si](C)(C)C(C)(C)C)[C@H]3O[Si](C)(C)C(C)(C)C)c2=O)cc1 (some centres unmarked) | C. albicans GC 3066 | 128 mg/L |
| COc1ccc(Cn2c(=O)ccn([C@@H]3OC([C@H](O)[C@H](NCCCNC(=O)[C@H](CCCCNC(=O)OCc4ccccc4)NC(=O)OCc4ccccc4)C(=O)OC(C)(C)C)[C@@H](O[Si](C)(C)C(C)(C)C)[C@H]3O[Si](C)(C)C(C)(C)C)c2=O)cc1 (some centres unmarked) | C. albicans GC 3066 | > 128 mg/L |
| COc1ccc(Cn2c(=O)ccn([C@@H]3OC([C@H](O)[C@H](NCCCNC(=O)[C@@H](NC(=O)OCc4ccccc4)[C@@H](O)C(C)C)C(=O)OC(C)(C)C)[C@@H](O[Si](C)(C)C(C)(C)C)[C@H]3O[Si](C)(C)C(C)(C)C)c2=O)cc1 (some centres unmarked) | C. albicans GC 3066 | > 128 mg/L |
| COc1ccc(Cn2c(=O)ccn([C@@H]3OC([C@H](O)[C@H](NCCCNC(=O)C(NC(=O)[C@H](CCCNC(=N)N[N+](=O)[O-])NC(=O)N[C@H](C(=O)OCc4ccccc4)C(C)C)[C@@H](C)O)C(=O)OC(C)(C)C)[C@@H](O[Si](C)(C)C(C)(C)C)[C@H]3O[Si](C)(C)C(C)(C)C)c2=O)cc1 (some centres unmarked) | C. albicans GC 3066 | 64 mg/L |
| COc1ccc(Cn2c(=O)ccn([C@@H]3OC([C@H](O)[C@H](NCCCNC(=O)[C@@H](NC(=O)OCc4ccccc4)[C@H](C)O)C(=O)OC(C)(C)C)[C@@H](O[Si](C)(C)C(C)(C)C)[C@H]3O[Si](C)(C)C(C)(C)C)c2=O)cc1 (some centres unmarked) | C. albicans GC 3066 | 128 mg/L |
| COc1ccc(Cn2c(=O)ccn([C@@H]3OC([C@@H](O)[C@H](NCCCNC(=O)[C@@H](NC(=O)OCc4ccccc4)[C@H](C)O)C(=O)OC(C)(C)C)[C@@H](O[Si](C)(C)C(C)(C)C)[C@H]3O[Si](C)(C)C(C)(C)C)c2=O)cc1 (some centres unmarked) | C. albicans GC 3066 | 32 mg/L |
| COc1ccc(Cn2c(=O)ccn([C@@H]3OC([C@@H](O)[C@H](NCCCNC(=O)C(NC(=O)OCc4ccccc4)[C@@H](O)C(C)C)C(=O)OC(C)(C)C)[C@@H](O[Si](C)(C)C(C)(C)C)[C@H]3O[Si](C)(C)C(C)(C)C)c2=O)cc1 (stereo in doubt) | C. albicans GC 3066 | 128 mg/L |
| COc1ccc(Cn2c(=O)ccn([C@@H]3OC([C@H](O)[C@H](NCCCNC(=O)CCCCCCCCCCNC(=O)OCC4c5ccccc5-c5ccccc54)C(=O)OC(C)(C)C)[C@@H](O[Si](C)(C)C(C)(C)C)[C@H]3O[Si](C)(C)C(C)(C)C)c2=O)cc1 (some centres unmarked) | C. albicans GC 3066 | 128 mg/L |
| COc1ccc(Cn2c(=O)ccn([C@@H]3OC([C@H](O)[C@H](NCCCNC(=O)[C@H](CC(C)C)NC(=O)[C@H](CCCNC(=N)N)NC(=O)N[C@H](C(=O)O)C(C)C)C(=O)OC(C)(C)C)[C@@H](O[Si](C)(C)C(C)(C)C)[C@H]3O[Si](C)(C)C(C)(C)C)c2=O)cc1 (some centres unmarked) | C. albicans GC 3066 | > 128 mg/L |
